Source of measurements: patent US7205403B2

Provide the recorded Ki for the entries that follow.
Biological target: human A2B adenosine receptor (Homo sapiens)
Sequence (P29275 whole entry): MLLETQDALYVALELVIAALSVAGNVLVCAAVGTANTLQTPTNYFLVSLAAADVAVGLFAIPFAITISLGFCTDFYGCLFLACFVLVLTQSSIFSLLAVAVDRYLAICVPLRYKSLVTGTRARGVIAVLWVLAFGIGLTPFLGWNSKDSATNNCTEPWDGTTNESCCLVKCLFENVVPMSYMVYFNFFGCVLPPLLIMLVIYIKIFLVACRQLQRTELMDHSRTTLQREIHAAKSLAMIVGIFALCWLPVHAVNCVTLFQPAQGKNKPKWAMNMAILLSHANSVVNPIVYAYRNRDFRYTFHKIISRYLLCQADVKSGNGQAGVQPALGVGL
Assay: [3H]DPCPX binding to human A2B receptors expressed in HEK293 cells
Parameters: host or cells: HEK 293 cells (membranes)
Conditions: geometric mean (95% confidence interval); >1000 = no appreciable binding; read-out: Ki, [3H]DPCPX binding to human A2B receptors expressed in HEK293 cells
Value expressed in nM; do not type the unit.

Ki for human A2B adenosine receptor (Homo sapiens) with input CC(C)Cn1c(=O)c2[nH]c(-c3cc(OCC(=O)Nc4ccc(Br)cc4)nn3C)nc2n(CC(C)C)c1=O equals 132

Ki for human A2B adenosine receptor (Homo sapiens) with input CCCn1c(=O)c2[nH]c(-c3cc(NC(=O)Cc4ccc(F)c(F)c4)nn3C)nc2n(CCC)c1=O equals 130

Ki for human A2B adenosine receptor (Homo sapiens) with input CCCn1c(=O)c2[nH]c(-c3cc(OCC(=O)Nc4ccc(Cl)c(Cl)c4)nn3C)nc2n(CCC)c1=O equals 16

Ki for human A2B adenosine receptor (Homo sapiens) with input CCCn1c(=O)c2[nH]c(-c3cc(OCC(=O)Nc4ccc(F)cc4)n(C)n3)nc2n(CCC)c1=O equals 185

Ki for human A2B adenosine receptor (Homo sapiens) with input CCCn1c(=O)c2[nH]c(-c3cc(NC(=O)Cc4ccc([N+](=O)[O-])cc4)nn3C)nc2n(CCC)c1=O equals 78

Ki for human A2B adenosine receptor (Homo sapiens) with input CCCn1c(=O)c2[nH]c(-c3cc(OCC(=O)Nc4ccc(C(C)=O)cc4)nn3C)nc2n(CCC)c1=O equals 86

Ki for human A2B adenosine receptor (Homo sapiens) with input CCCn1c(=O)c2[nH]c(-c3cc(OCC(=O)Nc4ccncc4)nn3C)nc2n(CCC)c1=O equals 41

Ki for human A2B adenosine receptor (Homo sapiens) with input CCCn1c(=O)c2[nH]c(-c3cc(N)nn3C)nc2n(CCC)c1=O equals 235
